Each recorded value in this set is attributed to patent US20220096649A1.

The binders listed here are annotated with their Kd.
MEASUREMENT TARGET: T1, Human SIRPγ (human, UniProt Q9P1W8 29-147, limits assumed)
T1 construct: Soluble analyte in SPR
T1 sequence (Q9P1W8 29-147 limits assumed): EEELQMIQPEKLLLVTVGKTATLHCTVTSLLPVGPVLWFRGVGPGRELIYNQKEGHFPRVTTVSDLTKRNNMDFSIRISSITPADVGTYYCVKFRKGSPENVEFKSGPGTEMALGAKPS
TEST SUMMARY: SPR, antibody on GLC chip, SIRP as analyte
Unit nM implied. Number only.

As a guide, the following entries are already answered.
BINDER: Anti-SIRP-α antibody 136, light chain Mut_I2T, heavy chain Mut_V34M (antibody, V domains shown, Whole antibody) VH: EVQLVESGGGVVQPGRSLRLSCAASGFTFSSYDMNWVRQAPGKGLEWVSLISGSGEIIYYADSVKGRFTISRDNSKNTLYLQMNSLRAEDTAVYYCAKENNRYRFFDDWGQGTLVTVSS VL: ETVLTQSPGTLSLSPGERATLSCRASQSVYTYLAWYQQKPGQAPRLLIYGASSRATGIPDRFSGSGSGTEFTLTISSLQSEDFAVYYCQQYYDRPPLTFGGGTKVEIK
METRIC NAME: Kd
RESULT: 34

BINDER: Hum1/AB21_HC_Mutall (antibody, V domains shown, Whole antibody) VH: EVQLVESGGGVVQPGGSLRLSCAASGFTFSSNAMSWVRQAPGKGLEWVAGISAGGSDTYYPASVKGRFTISRDNSKNTLYLQMNSLRAEDTAVYYCARETWNHLFDYWGQGTLVTVSS VL: SYELTQPPSVSVSPGQTARITCSGGSYSSYYYAWYQQKPGQAPVTLIYSDDKRPSNIPERFSGSSSGTTVTLTISGVQAEDEADYYCGGYDQSSYTNPFGGGTKLTVL
METRIC NAME: Kd
RESULT: 0.001

Turning now to a further record.
Entry under review: Anti-SIRP-α antibody 135, light chain wt, heavy chain wt (antibody, V domains shown, Whole antibody) VH: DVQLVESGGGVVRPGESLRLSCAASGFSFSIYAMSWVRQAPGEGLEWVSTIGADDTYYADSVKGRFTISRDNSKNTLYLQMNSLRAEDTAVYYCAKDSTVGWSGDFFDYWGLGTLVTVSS VL: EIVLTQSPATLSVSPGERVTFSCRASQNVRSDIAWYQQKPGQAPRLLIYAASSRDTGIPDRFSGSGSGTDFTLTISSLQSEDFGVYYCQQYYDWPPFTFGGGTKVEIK . Reported Kd?
0.54
